- Protocol description: Plasma exposure after oral gavage in mice, LC-MS/MS
- Assay type: in vivo
- Applied conditions: mouse, in vivo, po, 25 mg/kg
Exercise: for every item that follows, state its recorded concentration at 3 h.
Give bare numbers, in ng/mL.

Worked examples, 3 molecules total:
Per the record, `CCNC(=O)C[C@@H]1N=C(c2ccc(Cl)cc2)c2c(sc(C#Cc3cncn3C)c2C)-n2c(C)nnc21` has concentration at 3 h of 29

Per the record, `Cc1c(C#CC2CCOCC2)sc2c1C(c1ccc(Cl)cc1)=N[C@@H](CC(=O)N1CC(F)(F)C1)c1nnc(C)n1-2` has concentration at 3 h of 473

Per the record, `Cc1nnc(C[C@@H]2N=C(c3ccc(Cl)cc3)c3c(sc(C#CC4CCOCC4)c3C)-n3c(C)nnc32)s1` has concentration at 3 h of 299

Required: concentration at 3 h, one value per molecule below.
1. Cc1c(C#CC2CCOCC2)sc2c1C(c1ccc(Cl)cc1)=N[C@@H](CC(=O)Nc1ccc(O)cc1)c1nnc(C)n1-2
2. Cc1c(C#CC2CCOCC2)sc2c1C(c1ccc(Cl)cc1)=N[C@@H](CC(=O)N1CCOCC1)c1nnc(C)n1-2
3. Cc1c(C#Cc2cncn2C)sc2c1C(c1ccc(Cl)cc1)=N[C@@H](CC(N)=O)c1nnc(C)n1-2

1. 127
2. 372
3. 22

====

- Experimental system: recombinant BRD4 BD2 (Homo sapiens)
- Construct: for recombinant BRD4 BD1 and BRD4 BD2 proteins
- Protocol description: Competitive fluorescence-polarization (FP) binding assay, BRD4 BD2
- Applied conditions: competitive FP, Table 6; read-out: IC50 as determinined in FP assays BRD4 BD2
- Procedure: Fluorescence Polarization (FP) competitive binding studies were carried out using a FAM labeled fluorescent probe, see, e.g., Cpd. […] Equilibrium dissociation constants (Kd) values of the fluorescent probe to BRD4 BD1 and BD2 proteins were determined from protein saturation experiments by monitoring the total fluorescence polarization of mixtures composed with the fluorescent probe at a fixed concentration and proteins with increasing concentrations up to full saturation. […]
Strictly below 30 nM in IC50: y. Otherwise: n.

Report whether reported IC50 is lower than 30 nM (strictly) for `Cc1c(C#Cc2ccccn2)sc2c1C(c1ccc(Cl)cc1)=N[C@@H](CC(=O)NC1CCNCC1)c1nnc(C)n1-2`
y

Report whether reported IC50 is lower than 30 nM (strictly) for `Cc1c(C#Cc2ccccn2)sc2c1C(c1ccc(Cl)cc1)=N[C@@H](CC(=O)N1CCNCC1)c1nnc(C)n1-2`
n

Report whether reported IC50 is lower than 30 nM (strictly) for `Cc1c(C#Cc2ccccn2)sc2c1C(c1ccc(Cl)cc1)=N[C@@H](CC(=O)N1CCC(O)CC1)c1nnc(C)n1-2`
n

Report whether reported IC50 is lower than 30 nM (strictly) for `Cc1nnc(C[C@@H]2N=C(c3ccc(Cl)cc3)c3c(sc(C#CC(C)(C)O)c3C)-n3c(C)nnc32)o1`
y

Report whether reported IC50 is lower than 30 nM (strictly) for `Cc1c(C#Cc2ccccn2)sc2c1C(c1ccc(Cl)cc1)=N[C@@H](CC(=O)N1CCOCC1)c1nnc(C)n1-2`
y

Report whether reported IC50 is lower than 30 nM (strictly) for `Cc1c(C#Cc2cccnc2)sc2c1C(c1ccc(Cl)cc1)=N[C@@H](CC(=O)OC(C)(C)C)c1nnc(C)n1-2`
y

Report whether reported IC50 is lower than 30 nM (strictly) for `Cc1nnc(C[C@@H]2N=C(c3ccc(Cl)cc3)c3c(sc(C#CC4CCN(C)CC4)c3C)-n3c(C)nnc32)o1`
n

Report whether reported IC50 is lower than 30 nM (strictly) for `Cc1c(C#Cc2ccccn2)sc2c1C(c1ccc(Cl)cc1)=N[C@@H](CC(N)=O)c1nnc(C)n1-2`
n

Next:
Report whether reported IC50 is lower than 30 nM (strictly) for `Cc1c(C#CC2CCOCC2)sc2c1C(c1ccc(Cl)cc1)=N[C@@H](CC(=O)N1CCC(O)CC1)c1nnc(C)n1-2`
n

====

- Protocol description: Plasma exposure after oral gavage in mice, LC-MS/MS
- Type: in vivo
- Applied conditions: mouse, in vivo, po, 25 mg/kg
Recorded metric: concentration at 6 h (ng/mL)
Numbers only, in ng/mL.

Per the record, Cc1c(C#CC2CCOCC2)sc2c1C(c1ccc(Cl)cc1)=N[C@@H](CC(=O)N1CC(F)(F)C1)c1nnc(C)n1-2 [Compound 156] has concentration at 6 h of 226

Required: concentration at 6 h, one value per compound below.
1. Cc1nnc(C[C@@H]2N=C(c3ccc(Cl)cc3)c3c(sc(C#CC4(C)COC4)c3C)-n3c(C)nnc32)o1 [Compound 149]
2. Cc1c(C#CC2CCOCC2)sc2c1C(c1ccc(Cl)cc1)=N[C@@H](CC(=O)Nc1ccc(O)cc1)c1nnc(C)n1-2 [Compound 155]
3. Cc1c(C#CC2CCOCC2)sc2c1C(c1ccc(Cl)cc1)=N[C@@H](CC(=O)N1CCOCC1)c1nnc(C)n1-2 [Compound 154]

[6640, 42, 220]

Required: concentration at 6 h, one value per compound below.
1. CCNC(=O)C[C@@H]1N=C(c2ccc(Cl)cc2)c2c(sc(C#Cc3cncn3C)c2C)-n2c(C)nnc21 [Compound 169]
2. Cc1c(C#Cc2cncn2C)sc2c1C(c1ccc(Cl)cc1)=N[C@@H](CC(N)=O)c1nnc(C)n1-2 [Compound 168]
3. Cc1nnc(C[C@@H]2N=C(c3ccc(Cl)cc3)c3c(sc(C#CC4CCOCC4)c3C)-n3c(C)nnc32)s1 [Compound 151]
4. Cc1c(C#CC2CCOCC2)sc2c1C(c1ccc(Cl)cc1)=N[C@@H](CC(N)=O)c1nnc(C)n1-2 [Compound 152]

1: 5; 2: 20; 3: 115; 4: 231

====

- Experimental system: BRD2 BD2 (Homo sapiens, UniProt P25440)
- Sequence (P25440 344-453 limits assumed): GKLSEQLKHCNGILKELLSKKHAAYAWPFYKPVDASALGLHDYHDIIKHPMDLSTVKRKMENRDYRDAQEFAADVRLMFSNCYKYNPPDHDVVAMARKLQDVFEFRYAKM
- Protocol description: Competitive FP binding assay, BRD2 BD2
- Applied conditions: Table 8, read-out: IC50 (nM) in FP assays BRD2 BD2
Recorded metric: IC50 (nM)
One number for each entry, in nM.

Tested on BRD2 BD2 (Homo sapiens, UniProt P25440), the item Cc1c(C#CC2CCOCC2)sc2c1C(c1ccc(Cl)cc1)=N[C@@H](CC(=O)N1CC(C)(O)C1)c1nnc(C)n1-2 [Compound 158] showed IC50 equal to 182

Tested on BRD2 BD2 (Homo sapiens, UniProt P25440), the item Cc1c(C#CC2CCOCC2)sc2c1C(c1ccc(Cl)cc1)=N[C@@H](CC(=O)N1CCC(C)(O)CC1)c1nnc(C)n1-2 [Compound 157] showed IC50 equal to 146

Tested on BRD2 BD2 (Homo sapiens, UniProt P25440), the item Cc1nnc(C[C@@H]2N=C(c3ccc(Cl)cc3)c3c(sc(C#CC4CCOCC4)c3C)-n3c(C)nnc32)o1 [Compound 145] showed IC50 equal to 50.7

Next:
Tested on BRD2 BD2 (Homo sapiens, UniProt P25440), the item Cc1c(C#CC2CCOCC2)sc2c1C(c1ccc(Cl)cc1)=N[C@@H](CC(=O)N1CCC(O)CC1)c1nnc(C)n1-2 [Compound 159] showed IC50 equal to 143

====

- Protocol description: Plasma exposure after oral gavage in mice, LC-MS/MS
- Format: in vivo
- Applied conditions: mouse, in vivo, po, 25 mg/kg
Recorded metric: concentration at 1 h
Answers without a unit are incomplete; give the number and then its unit.

Per the record, Cc1nnc(C[C@@H]2N=C(c3ccc(Cl)cc3)c3c(sc(C#CC4CCOCC4)c3C)-n3c(C)nnc32)s1 [Compound 151] has concentration at 1 h of 0.451 µg/mL

Required: concentration at 1 h, one value per compound below.
1. Cc1c(C#CC2CCOCC2)sc2c1C(c1ccc(Cl)cc1)=N[C@@H](CC(=O)N1CCOCC1)c1nnc(C)n1-2 [Compound 154]
2. Cc1c(C#CC2CCOCC2)sc2c1C(c1ccc(Cl)cc1)=N[C@@H](CC(=O)Nc1ccc(O)cc1)c1nnc(C)n1-2 [Compound 155]
3. Cc1c(C#CC2CCOCC2)sc2c1C(c1ccc(Cl)cc1)=N[C@@H](CC(N)=O)c1nnc(C)n1-2 [Compound 152]

1.03 µg/mL
0.832 µg/mL
1.12 µg/mL

====

Exercise: for every item that follows, state its recorded pIC50.
- Experimental system: recombinant BRD4 BD2 (Homo sapiens, UniProt O60885)
- Construct: for recombinant BRD4 BD1 and BRD4 BD2 proteins
- Protocol description: Competitive fluorescence-polarization (FP) binding assay, BRD4 BD2
One number for each entry, as −log10 of the molar value.

Worked examples, 3 compounds total:
Per the record, Cc1c(C#Cc2ccncc2)sc2c1C(c1ccc(Cl)cc1)=NCc1nnc(C)n1-2 [Cpd. No. 7] has pIC50 of 5.78

Per the record, Cc1c(C#Cc2ccc(N)nc2)sc2c1C(c1ccc(Cl)cc1)=N[C@@H](C)c1nnc(C)n1-2 [Cpd. No. 18] has pIC50 of 8.05

Per the record, Cc1c(C#Cc2cnn(CCCO)c2)sc2c1C(c1ccc(Cl)cc1)=N[C@@H](C)c1nnc(C)n1-2 [Cpd. No. 12] has pIC50 of 7.96

Here is another compound to look at.
Per the record, Cc1c(C#Cc2ccncc2)sc2c1C(c1ccc(Cl)cc1)=N[C@@H](C)c1nnc(C)n1-2 [Cpd. No. 8] has pIC50 of 7.98

src = patent US11046709B2
